FYI, the data here is from patent US9562053B2.

- systemTested: Human GPR120 short form (Homo sapiens)
- Construct: expressed in transfected cells
- Sequence (Q5NUL3 whole entry): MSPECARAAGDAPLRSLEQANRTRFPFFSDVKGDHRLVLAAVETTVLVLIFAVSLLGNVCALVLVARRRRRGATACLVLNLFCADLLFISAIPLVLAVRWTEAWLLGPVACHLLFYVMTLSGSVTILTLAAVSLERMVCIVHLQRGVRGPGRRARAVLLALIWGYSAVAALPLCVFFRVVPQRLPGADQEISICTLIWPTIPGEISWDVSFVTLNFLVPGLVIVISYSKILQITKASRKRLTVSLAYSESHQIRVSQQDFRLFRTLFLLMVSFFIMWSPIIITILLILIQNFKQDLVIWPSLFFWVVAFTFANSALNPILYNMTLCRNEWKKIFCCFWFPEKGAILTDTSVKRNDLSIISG
- protocolText: Human GPR120 in Calcium Flux Assay, Procedure Calcium A (2500 cells/well)
- Format: cell-based
propertyMeasured: EC50 (nM)

compoundStructure: Cc1cc2cc(F)cc(COc3ccc(CCC(=O)O)c(C)c3C)c2o1
numericResult: 51
--
compoundStructure: CCc1cc2cc(Cl)c(OC(F)F)c(COc3ccc(CCC(=O)O)c(C)c3C)c2o1
numericResult: 45
--
compoundStructure: Cc1cc2cc(OC(F)(F)F)cc(COc3ccc(CCC(=O)O)c4c3CCC4)c2o1
numericResult: 28
--
compoundStructure: Cc1c(CCC(=O)O)ccc(OCc2cc(F)cc3cc(C#N)oc23)c1C
numericResult: 237
--
compoundStructure: Cc1cc2cc(OC(F)(F)F)cc(COc3ccc(CCC(=O)O)c(C(F)(F)F)c3)c2o1
numericResult: 121

a. CCc1cc2cc(Cl)c(OC)c(COc3ccc(CCC(=O)O)c(C)c3C)c2o1
b. Cc1nc2c(COc3ccc(CCC(=O)O)c(C)c3C)cc(Cl)cc2s1
Exercise: For the pair a and b , which entry has the numerically smaller recorded EC50? Refer to your chosen item by its label in the answer.
Key: b
(b: 18 nM, a: 27 nM)
